Sourced from patent US8859541B2

biological target: XIAP BIR3 (Homo sapiens, UniProt P98170); construct: covering amino acids 241 to 356; XIAP BIR3; assay: XIAP BIR3 binding assay (DELFIA), displacement of SMAC peptide; conditions: GST-fusion BIR3 domain (aa 241 to 356) 10 nM, SMAC peptide 10 nM; activity of the (S)-isomers
Sequence (P98170 241-356): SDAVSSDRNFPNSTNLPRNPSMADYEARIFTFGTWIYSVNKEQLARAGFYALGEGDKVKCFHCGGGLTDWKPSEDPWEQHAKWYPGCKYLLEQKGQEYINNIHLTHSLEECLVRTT
pIC50: −log10 of the molar value.
pIC50: recorded values
MEASURED_ENDPOINT: pIC50

- COMPOUND: "CNC(C)C(=O)Nc1ccc(-c2ccc3c(c2)C(=O)CCC3)c(C#Cc2ccccc2)n1 (centres unmarked)"
  VALUE_MEASURED: 6.67
- COMPOUND: "CNC(C)C(=O)Nc1ccc(-c2c(C)ncnc2C)c(C#Cc2ccc3cnccc3c2)n1 (centres unmarked)"
  VALUE_MEASURED: 6.37
- COMPOUND: "CNC(C)C(=O)Nc1ccc(-c2c(C)nc3ccccn23)c(C#Cc2nc3ccccc3s2)n1 (centres unmarked)"
  VALUE_MEASURED: 6.57
- COMPOUND: "CNC(C)C(=O)Nc1ccc(-c2c(C)nc3ccccn23)c(C#Cc2cc(C)nc3c(F)cccc23)n1 (centres unmarked)"
  VALUE_MEASURED: 6.76
- COMPOUND: "Cc1ccccc1-c1ccc(NC(=O)C(C)N)nc1C#Cc1ccccc1 (centres unmarked)"
  VALUE_MEASURED: 5.79
- COMPOUND: "CNC(C)C(=O)Nc1ccc(-c2cncnc2C)c(C#Cc2ccc(C)c(C)c2)n1 (centres unmarked)"
  VALUE_MEASURED: 6.67
- COMPOUND: "CNC(C)C(=O)Nc1ccc(-c2c(C)nc(N3CCCC3)nc2C)c(C#Cc2ccc3ncccc3c2)n1 (centres unmarked)"
  VALUE_MEASURED: 5.88
- COMPOUND: "CNC(C)C(=O)Nc1ccc(-c2cncc3ccccc23)c(C#Cc2ccc(F)cc2)n1 (centres unmarked)"
  VALUE_MEASURED: 6.19
- COMPOUND: "CC(N)C(=O)Nc1ccc(-c2cncc(F)c2)c(C#Cc2ccccc2)n1 (centres unmarked)"
  VALUE_MEASURED: 6.61
- COMPOUND: "CNC(C)C(=O)Nc1ccc(-c2cccc3c2ccn3C)c(C#Cc2ccccc2)n1 (centres unmarked)"
  VALUE_MEASURED: 6.30
- COMPOUND: "CNC(C)C(=O)Nc1ccc(-c2c(C)nc3ccccn23)c(C#Cc2ccc3occc3c2)n1 (centres unmarked)"
  VALUE_MEASURED: 6.84
- COMPOUND: "Cc1ccc(C#Cc2cccc(NC(=O)C(C)N)n2)cc1 (centres unmarked)"
  VALUE_MEASURED: 5.84
- COMPOUND: "CNC(C)C(=O)Nc1ccc(-c2c(C)nc(N3CCOCC3)nc2C)c(C#Cc2ccc3ncccc3c2)n1 (centres unmarked)"
  VALUE_MEASURED: 6.06
- COMPOUND: "CNC(C)C(=O)Nc1ccc(-c2c(C)nc3ccccn23)c(C#Cc2ccc3c(c2)CN(C)C3=O)n1 (centres unmarked)"
  VALUE_MEASURED: 6.64
- COMPOUND: "CNC(C)C(=O)Nc1ccc(-c2c(C)nc3ccccn23)c(C#Cc2ccc(C(N)=O)cc2)n1 (centres unmarked)"
  VALUE_MEASURED: 7.15
- COMPOUND: "CNC(C)C(=O)Nc1ccc(-c2c(C)ncn2Cc2ccccc2)c(C#Cc2ccccc2)n1 (centres unmarked)"
  VALUE_MEASURED: 6.22
- COMPOUND: "CNC(C)C(=O)Nc1ccc(-c2cnccc2OC)c(C#Cc2ccc3cnccc3c2)n1 (centres unmarked)"
  VALUE_MEASURED: 5.91
